Where these numbers come from: patent US20250152746A1

tested on: PCSK9 gene splice site; type: cell-based, human
Output: class label from Human Primary Hepatocytes-splice site editing % 5000 ng/mL. Mapping: low range (below 2%), mid range (2% to below 7%), high range (7% or more)

{"MOLECULE": "GA080: PCSK9 gRNA for ABE8.8 splice site editing, Human/Cyno (nucleic acid, 2'-O-methyl at 1, 2, other sugars and backbone not given here; further chemistry not fully specified, PCSK9 gRNA for ABE8.8 splice site editing, Human/Cyno) guide: CCTTTCCAGGTCATCACAGTGTTTTAGAGCTAGAAATAGCAAGTTAAAATAAGGCTAGTCCGTTATCAACTTGAAAAAGTGGCACCGAGTCGGTGCTTTT", "ANSWER_LABEL": "low range"}
{"MOLECULE": "GA086: PCSK9 gRNA for ABE8.8 splice site editing, Human/Cyno (nucleic acid, listed as RNA; modified_base 1: mod_base = OTHER; note = 2'-O-Methyl-uridine phosphorothioate; modified_base 2: mod_base = OTHER; modified_base, PCSK9 gRNA for ABE8.8 splice site editing, Human/Cyno) guide: TTCACCTGCTCCTGAGGGGCGTTTTAGAGCTAGAAATAGCAAGTTAAAATAAGGCTAGTCCGTTATCAACTTGAAAAAGTGGCACCGAGTCGGTGCTTTT", "ANSWER_LABEL": "mid range"}
{"MOLECULE": "GA072: PCSK9 gRNA for ABE8.8 splice site editing, Human/Cyno (nucleic acid, 2'-O-methyl at 1, 2, other sugars, backbone and T or U not given here; further chemistry not fully specified, PCSK9 gRNA for ABE8.8 splice site editing, Human/Cyno) guide: GGTGGCTCACCAGCTCCAGCGTTTTAGAGCTAGAAATAGCAAGTTAAAATAAGGCTAGTCCGTTATCAACTTGAAAAAGTGGCACCGAGTCGGTGCTTTT", "ANSWER_LABEL": "mid range"}
{"MOLECULE": "GA074: PCSK9 gRNA; protospacer TGCTTACCTGTCTGTGGAAG (SEQ ID NO: 68), splice donor of intron 4 (nucleic acid, listed as RNA; modified_base 1: mod_base = OTHER; note = 2'-O-Methyl-uridine phosphorothioate; modified_base 2: mod_base = OTHER; note = 2'-O-Methyl-guanosine phosphorothioate; modified_ba) guide: TGCTTACCTGTCTGTGGAAGGTTTTAGAGCTAGAAATAGCAAGTTAAAATAAGGCTAGTCCGTTATCAACTTGAAAAAGTGGCACCGAGTCGGTGCTTTT", "ANSWER_LABEL": "high range"}
{"MOLECULE": "GA075: PCSK9 gRNA for ABE8.8 splice site editing, Human/Cyno (nucleic acid, listed as RNA; modified_base 1: mod_base = OTHER; note = 2'-O-Methyl-uridine phosphorothioate; modified_base 2: mod_base = OTHER; modified_base, PCSK9 gRNA for ABE8.8 splice site editing, Human/Cyno) guide: TTGGAAAGACGGAGGCAGCCGTTTTAGAGCTAGAAATAGCAAGTTAAAATAAGGCTAGTCCGTTATCAACTTGAAAAAGTGGCACCGAGTCGGTGCTTTT", "ANSWER_LABEL": "mid range"}
{"MOLECULE": "GA076: PCSK9 gRNA for ABE8.8 splice site editing, Human/Cyno (nucleic acid, 2'-O-methyl at 1, 2, other sugars, backbone and T or U not given here; further chemistry not fully specified, PCSK9 gRNA for ABE8.8 splice site editing, Human/Cyno) guide: GAAAGACGGAGGCAGCCTGGGTTTTAGAGCTAGAAATAGCAAGTTAAAATAAGGCTAGTCCGTTATCAACTTGAAAAAGTGGCACCGAGTCGGTGCTTTT", "ANSWER_LABEL": "mid range"}
{"MOLECULE": "GA083: PCSK9 gRNA for ABE8.8 splice site editing, Human/Cyno (nucleic acid, 2'-O-methyl at 1, 2, other sugars and backbone not given here; further chemistry not fully specified, PCSK9 gRNA for ABE8.8 splice site editing, Human/Cyno) guide: UAAGGCCCAAGGGGGCAAGCGTTTTAGAGCTAGAAATAGCAAGTTAAAATAAGGCTAGTCCGTTATCAACTTGAAAAAGTGGCACCGAGTCGGTGCTTTT", "ANSWER_LABEL": "low range"}
{"MOLECULE": "GA073: PCSK9 gRNA; protospacer GCTTACCTGTCTGTGGAAGC (SEQ ID NO: 67), splice donor of intron 4 (nucleic acid, listed as RNA; modified_base 1: mod_base = OTHER; note = 2'-O-Methyl-guanosine phosphorothioate; modified_base 2: mod_base = OTHER; note = 2'-O-Methyl-cytidine phosphorothioate; modified_b) guide: GCTTACCTGTCTGTGGAAGCGTTTTAGAGCTAGAAATAGCAAGTTAAAATAAGGCTAGTCCGTTATCAACTTGAAAAAGTGGCACCGAGTCGGTGCTTTT", "ANSWER_LABEL": "high range"}

Qu. Into which bin does this molecule go? GA085: PCSK9 gRNA for ABE8.8 splice site editing, Human/Cyno (nucleic acid, listed as RNA; modified_base 1: mod_base = OTHER; note = 2'-O-Methyl-guanosine phosphorothioate; modified_base 2: mod_base = OTHER; note = 2'-O-Methyl-cytidine phosphorothioate; modified_b, PCSK9 gRNA for ABE8.8 splice site editing, Human/Cyno) guide: GCCTCTTCACCTGCTCCTGAGTTTTAGAGCTAGAAATAGCAAGTTAAAATAAGGCTAGTCCGTTATCAACTTGAAAAAGTGGCACCGAGTCGGTGCTTTT
Ans. mid range

Qu. Category lookup for the molecule GA087: PCSK9 gRNA for ABE8.8 splice site editing, Human/Cyno (nucleic acid, 2'-O-methyl at 1, 2, other sugars and backbone not given here; further chemistry not fully specified, PCSK9 gRNA for ABE8.8 splice site editing, Human/Cyno) guide: UCACCTGCTCCTGAGGGGCCGTTTTAGAGCTAGAAATAGCAAGTTAAAATAAGGCTAGTCCGTTATCAACTTGAAAAAGTGGCACCGAGTCGGTGCTTTT
Ans. low range

Qu. Form field 'band' for GA081: PCSK9 gRNA for ABE8.8 splice site editing, Human/Cyno (nucleic acid, listed as RNA; modified_base 1: mod_base = OTHER; note = 2'-O-Methyl-uridine phosphorothioate; modified_base 2: mod_base = OTHER; modified_base, PCSK9 gRNA for ABE8.8 splice site editing, Human/Cyno) guide: TTTCCAGGTCATCACAGTTGGTTTTAGAGCTAGAAATAGCAAGTTAAAATAAGGCTAGTCCGTTATCAACTTGAAAAAGTGGCACCGAGTCGGTGCTTTT
Ans. high range
